Measured target: TrkA kinase (Homo sapiens, UniProt P04629)
Sequence (P04629 33-796): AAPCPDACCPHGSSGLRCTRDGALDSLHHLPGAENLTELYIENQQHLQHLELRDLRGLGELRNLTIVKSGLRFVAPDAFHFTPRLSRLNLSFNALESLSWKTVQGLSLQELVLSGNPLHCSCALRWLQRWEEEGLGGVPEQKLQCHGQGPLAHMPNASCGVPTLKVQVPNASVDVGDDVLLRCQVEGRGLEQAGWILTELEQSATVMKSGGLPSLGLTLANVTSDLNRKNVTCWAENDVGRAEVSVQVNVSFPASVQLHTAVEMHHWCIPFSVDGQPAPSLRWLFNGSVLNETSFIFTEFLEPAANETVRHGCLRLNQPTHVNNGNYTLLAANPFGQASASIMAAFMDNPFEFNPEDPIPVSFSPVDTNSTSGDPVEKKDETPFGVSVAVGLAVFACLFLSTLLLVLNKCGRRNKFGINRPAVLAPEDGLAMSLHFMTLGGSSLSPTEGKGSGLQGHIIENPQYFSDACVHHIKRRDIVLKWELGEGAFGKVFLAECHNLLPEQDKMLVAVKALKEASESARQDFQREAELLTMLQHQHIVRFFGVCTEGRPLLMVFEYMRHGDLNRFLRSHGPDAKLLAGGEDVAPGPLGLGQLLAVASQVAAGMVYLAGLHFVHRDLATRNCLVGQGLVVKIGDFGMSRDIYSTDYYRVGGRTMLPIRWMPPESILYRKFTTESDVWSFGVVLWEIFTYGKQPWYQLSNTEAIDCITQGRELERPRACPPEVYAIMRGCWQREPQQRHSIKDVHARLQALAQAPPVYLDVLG
Assay protocol: TrkA kinase assay (mobility shift assay)
Assay type: biochemical
Condition notes: numeric values; read-out: Trk A Kinase IC50
Assign log10(IC50) to each entry below.
Hello, just confirming the data are log10 of IC50 with units of nM.

compound=Fc1ccc(F)c([C@H]2CCCN2c2ccn3ncc(-c4nc5cc(OC(F)(F)F)ccc5[nH]4)c3n2)c1 endpoint_name=log10(IC50) recorded_value=1.43
compound=Fc1ccc(F)c([C@H]2CCCN2c2ccn3ncc(-c4nc5ccc(OC(F)(F)F)cc5o4)c3n2)c1 endpoint_name=log10(IC50) recorded_value=1.37
compound=Cc1nccc2nc(-c3cnn4ccc(N5CCC[C@@H]5c5cc(F)ccc5F)nc34)[nH]c12 endpoint_name=log10(IC50) recorded_value=0.08
compound=OCc1cc2nc(-c3cnn4ccc(N5CCC[C@@H]5c5cc(F)ccc5F)nc34)oc2cc1F endpoint_name=log10(IC50) recorded_value=-0.10
compound="CC(O)(Cc1nnc(-c2cnn3ccc(N4CCC[C@@H]4c4cc(F)ccc4F)nc23)[nH]1)C(F)(F)F (stereo partly shown)" endpoint_name=log10(IC50) recorded_value=0.15

// each listed compound needs a value for log10(IC50)
1. Fc1ccc(F)c([C@H]2CCCN2c2ccn3ncc(-c4nnc(-c5ccc6c(c5)CCNC6)[nH]4)c3n2)c1
2. C[C@H](O)c1nnc(-c2cnn3ccc(N4CCC[C@@H]4c4cc(F)ccc4F)nc23)[nH]1

0.06
0.14

Values from patent US20210395256A1
